Test system: P. falciparum strain D6 (sensitive to chloroquine and pyrimethamine)
TEST_PROTOCOL: [3H]-hypoxanthine growth inhibition assay, P. falciparum D6
Type: cell-based
CONDITION_NOTES: Plasmodium falciparum; P. falciparum D6, [3H]-hypoxanthine incorporation; read-out: D6 IC50

{"COMPOUND": "CC(C)(C)NCc1cc(C(C)(C)C)cc(-c2ccc(Cl)c(C(F)(F)F)c2)c1O.Cl [Example 23, hydrochloride]", "IC50 / nM": 21}
{"COMPOUND": "CC(C)(C)NCc1cc(-c2ccc(Cl)cc2)nc(-c2ccc(Cl)cc2)c1O.Cl [Example 56, hydrochloride]", "IC50 / nM": 32}

---

The reader will find reported IC50 values listed item by item below.
System: P. falciparum strain W2 (resistant to chloroquine and pyrimethamine)
TEST_PROTOCOL: [3H]-hypoxanthine growth inhibition assay, P. falciparum W2
Assay type: cell-based
CONDITION_NOTES: Plasmodium falciparum; P. falciparum W2, [3H]-hypoxanthine incorporation; read-out: W2 IC50

{"COMPOUND": "CC(C)(C)NCc1cc(-c2ccc(Cl)cc2)nc(-c2ccc(Cl)cc2)c1O.Cl [Example 56, hydrochloride]", "IC50 (nM)": 12}
{"COMPOUND": "CC(C)(C)NCc1cc(C(C)(C)C)cc(-c2ccc(Cl)c(C(F)(F)F)c2)c1O.Cl [Example 23, hydrochloride]", "IC50 (nM)": 9}

---

Tested on: P. falciparum strain D6 (sensitive to chloroquine and pyrimethamine)
TEST_PROTOCOL: [3H]-hypoxanthine growth inhibition assay, P. falciparum D6
Type: cell-based
CONDITION_NOTES: Plasmodium falciparum, D6, read-out: D6 IC50
pIC50: −log10 of the molar value.

{"COMPOUND": "CCN(CC)CCCC(C)Nc1ccnc2cc(Cl)ccc12 (stereo not shown) [Chloroquine, chloroquine, reference compound]", "pIC50": 7.92}

---

The reader will find reported Average Days Survival values listed item by item below.
Tested on: Plasmodium berghei (KBG-173 strain)
TEST_PROTOCOL: Plasmodium berghei assay in vivo (modified Thompson Test), survival of infected mice
Set-up: species or system Charles River CD-1 mice
CONDITION_NOTES: 2 mg/kg/day, oral bid on days 3, 4 and 5; 31 day experiment

{"COMPOUND": "CC(C)(C)NCc1cc(C(C)(C)C)cc(-c2ccc(F)c(Cl)c2)c1O.Cl [Example 24]", "Average Days Survival": ">17 days"}
{"COMPOUND": "CC(C)(C)NCc1cc(C(C)(C)C)cc(-c2ccc(Cl)c(C(F)(F)F)c2)c1O.Cl [Example 23]", "Average Days Survival": ">7 days"}
{"COMPOUND": "CC(C)(C)NCc1cc(C(C)(C)C)cc(-c2cc(C(F)(F)F)cc(C(F)(F)F)c2)c1O.Cl [Example 16]", "Average Days Survival": ">20.5 days"}
{"COMPOUND": "CC(C)(C)NCc1cc(C(C)(C)C)cc(-c2ccc(Cl)c(Cl)c2)c1O.Cl [Example 19]", "Average Days Survival": ">7 days"}
{"COMPOUND": "CC(C)(C)NCc1cc(C(C)(C)C)cc(-c2ccc(C(F)(F)F)cc2)c1O.Cl [Example 22]", "Average Days Survival": ">16.8 days"}
{"COMPOUND": "CC(C)(C)NCc1cc(-c2ccc(Cl)cc2)cc(-c2ccc(Cl)c(Cl)c2)c1O.Cl [Example 39]", "Average Days Survival": ">23 days"}
